Biological target: ASH1L SET-BAH construct (amino acids 2069-2833) (Homo sapiens, UniProt Q9NR48)
Construct: ASH1L SET-BAH construct (amino acids 2069-2833); His tag (implied only by nickel-NTA purification); made in house; host or cells: E. coli BL21(DE3) T1R
Experiment: ASH1L histone methyltransferase (HMT) assay
Assay type: biochemical
Details: read-out: IC50 value measured in histone methyltransferase (HMT) assay
measurementKind: pIC50
By convention, pIC50 is the negative base-10 log of a molar concentration.

# get_value(readout='pIC50', item= COCCC(=O)Nc1ccc2c(-c3cccc(C(N)=S)c3)cn(C3CCN(S(C)(=O)=O)CC3)c2c1 [Compound 37] ) 6.12
